Source of measurements: patent US11098071B2

biological target: GPR84 (Homo sapiens); construct: expressed in transfected cells; host or cells: HEK293; test: GPR84 calcium flow model (antagonism of agonist 6-OAU, Fluo-4 fluorescence); type: cell-based
quantity: IC50

{"columns": ["compound", "IC50"],
 "data": [
  ["O=P(O)(Oc1c2ccccc2cc2ccccc12)Oc1c2ccccc2cc2ccccc12 [CLH472a]", "100 to 1000 nM"]
]}

Now, please, on to the next compound.
Given O=P(O)(Oc1cc2ccccc2c2ccccc12)Oc1cc2ccccc2c2ccccc12 , state its recorded IC50.
1000 to 10000 nM

---

Biological target: GPR84 (Homo sapiens)
Construct: expressed in transfected cells; host or cells: HEK293
Experiment: GPR84 calcium flow model (antagonism of agonist 6-OAU, Fluo-4 fluorescence)
Assay type: cell-based
Details: HEK293 cell line transfected with GPR84 and Gα16; agonist 6-OAU; Fluo-4; read-out: IC50 of the compound detected by the GPR84 calcium flow model
Procedure: GPR84 antagonistic activity of the compounds of the invention was determined. The human GPR84 cell line was obtained by transfecting a HEK293 cell line with a plasmid encoding GPR84 and Gα16 proteins. Fluorescent dye Fluo-4AM was purchased from Invitrogen. Intracellular Ca^2+ ion is a very important second messenger of G protein-coupled receptor signaling pathway. […] Fluo-4 is a Ca^2+ ion-specific fluorescent probe that binds quantitatively to Ca^2+ ions and emits fluorescence. […]
Item-by-item account of IC50

{"columns": ["compound", "quantity", "value"],
 "data": [
  ["O=P(O)(O/C1=C/c2ccccc2/C=C\\c2ccccc21)O/C1=C/c2ccccc2/C=C\\c2ccccc21 [CLH524]", "IC50", "100 to 1000 nM"]
]}

Request body: readout IC50, system GPR84 (Homo sapiens), query CCc1cccc2c1Sc1ccccc1C=C2OP(=O)(O)OC1=Cc2ccccc2Sc2c(CC)cccc21 [XYF628c] . Return the value.
0.1 to 100 nM

Can you check CN1c2ccccc2C=C(OP(=O)(O)OC2=Cc3ccccc3N(C)c3ccccc32)c2ccccc21 [CLH508] next?
100 to 1000 nM

Can you check O=P(O)(OC1=CC2=C(CCCC2)Sc2ccccc21)OC1=CC2=C(CCCC2)Sc2ccccc21 [CLH544] next?
100 to 1000 nM

Can you check COc1cccc2c1Sc1ccc(F)cc1C=C2OP(=O)(O)OC1=Cc2cc(F)ccc2Sc2c(OC)cccc21 [XYF632b] next?
0.1 to 100 nM

Can you check COc1cccc2c1Sc1cc(F)ccc1C=C2OP(=O)(O)OC1=Cc2ccc(F)cc2Sc2c(OC)cccc21 [XYF632] next?
0.1 to 100 nM

Can you check COc1cccc2c1Oc1ccccc1C=C2OP(=O)(O)OC1=Cc2ccccc2Oc2c(OC)cccc21 [XYF564-2a] next?
0.1 to 100 nM

Can you check O=P(O)(OC1=Cc2cc(Cl)ccc2Sc2ccccc21)OC1=Cc2cc(Cl)ccc2Sc2ccccc21 [XYF604b] next?
0.1 to 100 nM

Can you check CCc1cccc2c1Sc1cc(F)ccc1C=C2OP(=O)(O)OC1=Cc2ccc(F)cc2Sc2c(CC)cccc21 [XYF628] next?
1000 to 10000 nM

---

target: GPR84 (Homo sapiens, UniProt Q9NQS5); construct: expressed in transfected cells; host or cells: HEK293; test: GPR84 calcium flow model (antagonism of agonist 6-OAU, Fluo-4 fluorescence); format: cell-based; settings: HEK293 cell line transfected with GPR84 and Gα16; agonist 6-OAU; Fluo-4; read-out: IC50 of the compound detected by the GPR84 calcium flow model
Sequence (Q9NQS5 whole entry): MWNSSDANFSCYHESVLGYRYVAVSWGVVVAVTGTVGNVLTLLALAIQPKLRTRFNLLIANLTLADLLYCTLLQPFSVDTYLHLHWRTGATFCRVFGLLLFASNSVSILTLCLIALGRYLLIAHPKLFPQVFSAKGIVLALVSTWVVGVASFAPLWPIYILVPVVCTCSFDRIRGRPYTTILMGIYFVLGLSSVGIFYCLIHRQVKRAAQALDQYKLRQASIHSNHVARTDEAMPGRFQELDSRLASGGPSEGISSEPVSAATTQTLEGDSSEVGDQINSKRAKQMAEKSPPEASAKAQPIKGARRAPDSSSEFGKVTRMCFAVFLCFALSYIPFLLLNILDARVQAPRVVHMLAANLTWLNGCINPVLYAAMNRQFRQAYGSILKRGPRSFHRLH
pIC50: −log10 of the molar value.
Item-by-item account of pIC50

{"columns": ["molecule", "pIC50"],
 "data": [
  ["O=P(O)(OC1=Cc2c(F)cccc2Sc2ccccc21)OC1=Cc2c(F)cccc2Sc2ccccc21 [XYF573c]", "7.00 to 10.00"]
]}

Given CCc1cccc2c1Sc1ccc(F)cc1C=C2OP(=O)(O)OC1=Cc2cc(F)ccc2Sc2c(CC)cccc21 [XYF628b] , state its recorded pIC50.
6.00 to 7.00

Can you check CC(C(=O)O)c1ccc2c(c1)C=C(OP(=O)(O)OC1=Cc3cc(C(C)C(=O)O)ccc3Sc3ccccc31)c1ccccc1S2 (centres unmarked) [CLH680] next?
5.00 to 6.00

Can you check O=P(O)(O/C1=C/c2ccccc2CCc2ccccc21)O/C1=C/c2ccccc2CCc2ccccc21 [XYF528] next?
6.00 to 7.00

Can you check O=P(O)(OC1=Cc2ccccc2Sc2ccc(F)cc21)OC1=Cc2ccccc2Sc2ccc(F)cc21 [CLH572c] next?
6.00 to 7.00

---

target: GPR84 (Homo sapiens, UniProt Q9NQS5); construct: expressed in transfected cells; host or cells: HEK293; assay: GPR84 calcium flow model (antagonism of agonist 6-OAU, Fluo-4 fluorescence); type: cell-based; conditions: HEK293 cell line transfected with GPR84 and Gα16; agonist 6-OAU; Fluo-4; read-out: IC50 of the compound detected by the GPR84 calcium flow model
quantity: IC50

Guide cases for IC50, answers given:
{"columns": ["compound", "IC50"],
 "data": [
  ["COc1ccc2c(c1)C(OP(=O)(O)OC1=Cc3ccccc3Sc3ccc(OC)cc31)=Cc1ccccc1S2 [CLH596c]", "0.1 to 100 nM"],
  ["O=P(O)(OC1=Cc2c(F)cccc2Oc2ccccc21)OC1=Cc2c(F)cccc2Oc2ccccc21", "0.1 to 100 nM"],
  ["O=P(O)(OC1=Cc2ccccc2[S+]([O-])c2ccccc21)OC1=Cc2ccccc2S(=O)(=O)c2ccccc21 (stereo not shown)", "1000 to 10000 nM"],
  ["COc1cccc2c1Sc1c(OC)cccc1C(OP(=O)(O)OC1=Cc3cccc(OC)c3Sc3c(OC)cccc31)=C2 [XYF656a]", "100 to 1000 nM"],
  ["C=C1c2ccccc2C=C(OP(=O)(O)OC2=Cc3ccccc3C(=C)c3ccccc32)c2ccccc21 [CLH524a]", "100 to 1000 nM"]
]}

Now, please, on to the next compound.
Request body: readout IC50, system GPR84 (Homo sapiens, UniProt Q9NQS5), query CCc1cccc2c1Sc1c(F)cccc1C=C2OP(=O)(O)OC1=Cc2cccc(F)c2Sc2c(CC)cccc21 [XYF628a] . Return the value.
0.1 to 100 nM

---

target: GPR84 (Homo sapiens, UniProt Q9NQS5); construct: expressed in transfected cells; host or cells: HEK293; experiment: GPR84 calcium flow model (antagonism of agonist 6-OAU, Fluo-4 fluorescence); assay type: cell-based; conditions: HEK293 cell line transfected with GPR84 and Gα16; agonist 6-OAU; Fluo-4; read-out: IC50 of the compound detected by the GPR84 calcium flow model
pIC50: −log10 of the molar value.
Item-by-item account of pIC50

Guide cases for pIC50, answers given:
{"columns": ["compound", "pIC50"],
 "data": [
  ["O=P(O)(OC1=Cc2ccccc2Sc2cc(F)ccc21)OC1=Cc2ccccc2Sc2cc(F)ccc21 [CLH572b]", "6.00 to 7.00"],
  ["O=P(O)(OC1=Cc2ccccc2S(=O)(=O)c2ccccc21)OC1=Cc2ccccc2S(=O)(=O)c2ccccc21", "5.00 to 6.00"],
  ["CCOC(=O)C(C)c1ccc2c(c1)C=C(OP(=O)(O)OC1=Cc3cc(C(C)C(=O)OCC)ccc3Sc3ccccc31)c1ccccc1S2 (stereo not shown)", "5.00 to 6.00"],
  ["O=P(O)(OC1=Cc2c(F)cccc2Cc2ccccc21)OC1=Cc2c(F)cccc2Cc2ccccc21 [XYF536c]", "7.00 to 10.00"],
  ["O=P(O)(OC1=Cc2ccccc2SC2=C1CCCC2)OC1=Cc2ccccc2SC2=C1CCCC2 [CLH544a]", "6.00 to 7.00"],
  ["CC1c2ccccc2C=C(OP(=O)(O)OC2=Cc3ccccc3C(C)c3ccccc32)c2ccccc21 (stereo not shown) [CLH528a]", "6.00 to 7.00"]
]}

Given O=P(O)(OC1=Cc2ccccc2C2(OCCO2)c2ccccc21)OC1=Cc2ccccc2C2(OCCO2)c2ccccc21 [CLH616a] , state its recorded pIC50.
6.00 to 7.00

Can you check COc1cccc2c1Sc1cccc(F)c1C=C2OP(=O)(O)OC1=Cc2c(F)cccc2Sc2c(OC)cccc21 [XYF632c] next?
7.00 to 10.00

Can you check COc1ccc2c(c1)Sc1ccccc1C=C2OP(=O)(O)OC1=Cc2ccccc2Sc2cc(OC)ccc21 [CLH596b] next?
7.00 to 10.00

---

biological target: GPR84 (Homo sapiens, UniProt Q9NQS5); construct: expressed in transfected cells; host or cells: HEK293; test: GPR84 calcium flow model (antagonism of agonist 6-OAU, Fluo-4 fluorescence); type: cell-based; details: HEK293 cell line transfected with GPR84 and Gα16; agonist 6-OAU; Fluo-4; read-out: IC50 of the compound detected by the GPR84 calcium flow model
quantity: IC50

Guide cases for IC50, answers given:
{"columns": ["compound", "IC50"],
 "data": [
  ["O=P(O)(CC1=Cc2ccccc2Sc2ccccc21)CC1=Cc2ccccc2Sc2ccccc21", "1000 to 10000 nM"],
  ["COc1cccc2c1Sc1c(F)cccc1C=C2OP(=O)(O)OC1=Cc2cccc(F)c2Sc2c(OC)cccc21 [XYF632a]", "0.1 to 100 nM"],
  ["O=P(O)(OC1=Cc2ccccc2Oc2ccccc21)OC1=Cc2ccccc2Oc2ccccc21", "100 to 1000 nM"],
  ["O=P(O)(OC1=Cc2cccc(F)c2Sc2ccccc21)OC1=Cc2cccc(F)c2Sc2ccccc21 [XYF573a]", "100 to 1000 nM"],
  ["COc1cccc2c1SC1=C(C=C2OP(=O)(O)OC2=CC3=C(SCC3)Sc3c(OC)cccc32)CCS1", "0.1 to 100 nM"],
  ["COc1cccc2c1Sc1ccccc1C=C2OP(=O)(O)OC1=Cc2cc(C(C)C(=O)O)ccc2Sc2ccccc21 (stereo not shown)", "0.1 to 100 nM"],
  ["O=P(O)(OC1=Cc2ccccc2Sc2c(O)cccc21)OC1=Cc2ccccc2Sc2c(O)cccc21", "0.1 to 100 nM"],
  ["COc1cccc2c1Sc1ccccc1C=C2OP(=O)(O)OC1=Cc2ccccc2Sc2c(O)cccc21", "0.1 to 100 nM"],
  ["COc1ccc(OC)c2c1Sc1ccccc1C=C2OP(=O)(O)OC1=Cc2ccccc2Sc2c(OC)ccc(OC)c21 [CLH656a]", "100 to 1000 nM"],
  ["O=P(O)(OC1=Cc2ccccc2Sc2ccccc21)OC1=Cc2ccccc2Sc2ccccc21", "0.1 to 100 nM"]
]}

Given CC(C)Oc1cccc2c1Sc1ccccc1C=C2OP(=O)(O)OC1=Cc2ccccc2Sc2c(OC(C)C)cccc21 , state its recorded IC50.
100 to 1000 nM

Can you check O=P(O)(OC1=Cc2ccc(F)cc2Sc2ccccc21)OC1=Cc2ccc(F)cc2Sc2ccccc21 next?
100 to 1000 nM
